tested_system: Ba/F3 Bcr-Abl/WT (Homo sapiens)
Construct: fused on or other part: P11274 (Breakpoint cluster region protein)
Sequence (P00519 whole entry, change not shown, the tested form may be a part): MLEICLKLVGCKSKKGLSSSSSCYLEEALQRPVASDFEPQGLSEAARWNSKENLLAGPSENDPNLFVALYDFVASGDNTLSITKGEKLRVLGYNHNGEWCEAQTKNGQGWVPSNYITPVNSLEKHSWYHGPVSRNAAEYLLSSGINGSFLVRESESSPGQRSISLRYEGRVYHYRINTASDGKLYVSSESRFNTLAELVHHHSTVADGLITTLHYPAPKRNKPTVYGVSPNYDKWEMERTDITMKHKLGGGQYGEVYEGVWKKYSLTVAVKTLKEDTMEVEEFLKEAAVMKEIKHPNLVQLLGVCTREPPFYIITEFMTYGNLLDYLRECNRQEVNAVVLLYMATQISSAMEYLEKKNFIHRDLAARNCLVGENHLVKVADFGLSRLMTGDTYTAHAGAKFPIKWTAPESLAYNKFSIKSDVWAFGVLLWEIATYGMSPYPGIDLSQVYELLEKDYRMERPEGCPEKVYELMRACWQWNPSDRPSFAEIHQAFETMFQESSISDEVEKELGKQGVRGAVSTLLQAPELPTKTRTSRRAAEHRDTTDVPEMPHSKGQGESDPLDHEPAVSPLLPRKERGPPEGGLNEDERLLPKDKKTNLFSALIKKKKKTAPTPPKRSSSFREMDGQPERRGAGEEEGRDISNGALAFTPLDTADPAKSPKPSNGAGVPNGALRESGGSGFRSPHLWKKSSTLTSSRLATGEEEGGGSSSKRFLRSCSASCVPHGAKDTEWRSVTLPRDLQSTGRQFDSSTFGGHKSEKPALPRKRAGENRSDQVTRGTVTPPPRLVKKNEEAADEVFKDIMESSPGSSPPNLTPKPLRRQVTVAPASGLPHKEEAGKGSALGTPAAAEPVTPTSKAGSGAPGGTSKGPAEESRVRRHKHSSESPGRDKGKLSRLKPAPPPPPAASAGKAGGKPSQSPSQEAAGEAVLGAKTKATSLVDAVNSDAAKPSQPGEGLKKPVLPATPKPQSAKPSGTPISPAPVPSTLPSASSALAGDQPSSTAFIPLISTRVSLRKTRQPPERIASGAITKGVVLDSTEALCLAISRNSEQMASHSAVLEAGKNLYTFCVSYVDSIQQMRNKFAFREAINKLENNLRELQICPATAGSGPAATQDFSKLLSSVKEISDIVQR
assay_overview: Cell proliferation and cytotoxicity CCK-8 assay
Format: cell-based
measurement_conditions: imatinib sensitive cell line; CCK-8, 72 h; read-out: Inhibitory concentrations (IC50) Ba/F3 Bcr-Abl/WT
Below: a set of entries, each annotated with reported GI50.

# annotated cases, reported GI50 shown
CCCCCc1noc(C=Cc2ccc(O)c(O)c2)n1 ... < 10 µM
Oc1ccc(C=Cc2nc(CC3CCN(Cc4ccccc4)CC3)no2)cc1O ... 11 to 100 µM

Problem: // lookup GI50 for `CN(C)CCN1CCC(Cc2noc(C=Cc3ccc(O)c(O)c3)n2)CC1`
Solution: 11 to 100 µM

Problem: Suppose we examine the molecule `CCCc1noc(C=Cc2ccc(O)c(NS(C)(=O)=O)c2)n1` ; what GI50 value has been reported?
Solution: 11 to 100 µM

Problem: Which GI50 value is on record for `CCCc1noc(C=Cc2ccc(O)c(O)c2)n1` ?
Solution: < 10 µM

Problem: Which GI50 value belongs to `Oc1ccc(C=Cc2nc(C3CCCCCC3)no2)cc1O` ?
Solution: < 10 µM

====

tested_system: Ba/F3 Bcr-Abl/WT (Homo sapiens)
Construct: fused on or other part: P11274 (Breakpoint cluster region protein)
assay_overview: Cell proliferation and cytotoxicity CCK-8 assay
Assay type: cell-based
measurement_conditions: imatinib sensitive cell line; CCK-8, 72 h; read-out: Inhibitory concentrations (IC50) Ba/F3 Bcr-Abl/WT
Experimental: Cell Proliferation and Cytotoxicity CCK-8 Assay: Cell Counting Kit-8 (CCK-8) assay is a sensitive colorimetric assay for the determination of number of viable cells in cell proliferation and cytotoxicity assays. […] Cells were seeded at a density of ˜5×10^3 per well (0.09 mL) in a transparent 96-well tissue culture plate (NUNC, USA) and allowed to incubate at 37° C., 5% CO2 incubator for 2-6 h. […] The absorbance was measured at 450 nm using a microplate reader. […]
# reported GI50; entries follow

A selection of reference data follows.
Oc1ccc(C=Cc2nc(-c3cccnc3)no2)cc1O [Compound of Example 55] ... < 10 µM
Cc1noc(C=Cc2ccc(O)c(O)c2)n1 [Compound of Example 1] ... 11 to 100 µM
CN1CCC(c2noc(C=Cc3ccc(O)c(O)c3)n2)CC1 [Compound of Example 20] ... 11 to 100 µM

Problem: Please state recorded GI50 (tested on Ba/F3 Bcr-Abl/WT (Homo sapiens)) of CCCCCCCCc1noc(C=Cc2ccc(O)c(O)c2)n1 [Compound of Example 49]
Solution: < 10 µM

Problem: Request body: readout GI50, system Ba/F3 Bcr-Abl/WT (Homo sapiens), query CCc1noc(C=Cc2ccc(O)c(O)c2)n1 [Compound of Example 2] . Return the value.
Solution: < 10 µM
